Reference source for all entries: ChEMBL document CHEMBL3046187

Record: pIC50 reported on Aldo-keto reductase family 1 member B1 (Rattus norvegicus, UniProt P07943).
pIC50 here is simply -log10 of the concentration when that concentration is written in mol/L.

1. O=C(/C=C/c1ccccc1)c1cc(Cl)ccc1O; 4.94
2. COc1ccc(O)c(C(=O)/C=C/c2ccc(O)cc2)c1; 5.50
3. COc1ccc(/C=C/C(=O)c2cc(Cl)ccc2O)cc1; 4.83
4. Cc1ccc(/C=C/C(=O)c2cc(Cl)ccc2O)cc1; 5.01
5. O=C(/C=C/c1ccc(O)cc1O)c1ccc(O)cc1O; 6.80

API: the following record is the query input.
Consider the compound Cc1ccc(/C=C/C(=O)c2ccc(O)cc2O)cc1 and give its measured pIC50. 6.09
